// data source = patent US20230212549A1

assay: Pharmacokinetic study in mice (plasma, NCA); conditions: mouse, intravenous, 40 nmol/kg
measured_quantity: half-life (min)
Please give a number only; it is taken to be in min.

[Q] Form field: reported half-life of CCCCCC(=O)N[C@H]1CSCc2cc(CSCCNC(=O)CN3CCN(CC(=O)O)CCN(CC(=O)O)CCN(CC(=O)O)CC3)cc(c2)CSC[C@@H](C(=O)O)NC(=O)[C@H](Cc2ccccc2)NC(=O)[C@H](CCC(N)=O)NC(=O)[C@H]([C@@H](C)O)NC(=O)[C@@H]2CCCN2C(=O)[C@@H]2CCCN2C1=O
[A] 30

----------
target: Human recombinant FAP (Homo sapiens, UniProt Q12884); experiment: FRET-based FAP protease activity assay; format: biochemical; set-up: purchased R&D systems 3715-SE; conditions: pIC50 Category (Activity), FRET-based FAP protease activity assay, recombinant human FAP, 37° C.
Sequence (Q12884 whole entry): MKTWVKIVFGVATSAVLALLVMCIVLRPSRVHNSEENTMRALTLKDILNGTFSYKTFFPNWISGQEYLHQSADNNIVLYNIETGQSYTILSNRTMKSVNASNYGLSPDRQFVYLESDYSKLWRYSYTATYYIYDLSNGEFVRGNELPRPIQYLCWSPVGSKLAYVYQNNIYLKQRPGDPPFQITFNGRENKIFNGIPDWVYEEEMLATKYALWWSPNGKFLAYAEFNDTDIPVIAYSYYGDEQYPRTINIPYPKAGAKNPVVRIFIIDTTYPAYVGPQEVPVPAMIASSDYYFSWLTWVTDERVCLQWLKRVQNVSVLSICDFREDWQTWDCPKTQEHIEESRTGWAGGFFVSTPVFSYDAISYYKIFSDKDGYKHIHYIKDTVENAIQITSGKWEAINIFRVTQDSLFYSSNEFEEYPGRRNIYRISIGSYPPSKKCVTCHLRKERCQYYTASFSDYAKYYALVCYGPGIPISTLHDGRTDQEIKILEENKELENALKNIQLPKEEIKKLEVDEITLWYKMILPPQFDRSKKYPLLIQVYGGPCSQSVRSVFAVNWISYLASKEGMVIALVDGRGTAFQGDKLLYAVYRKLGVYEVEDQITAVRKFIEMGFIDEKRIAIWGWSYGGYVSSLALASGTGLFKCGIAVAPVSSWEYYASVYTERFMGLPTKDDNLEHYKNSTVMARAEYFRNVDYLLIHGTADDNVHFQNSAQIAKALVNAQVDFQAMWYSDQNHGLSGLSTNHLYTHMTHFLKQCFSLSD
pIC50: −log10 of the molar value. Numbered stars: 1 amine (or outer) side, 2 acyl side, 3 side chain; on linkers, the order of the positions; unused ones are H or OH. Bridge positions count the residues as written; N and C are the ends. Square brackets hold non-standard residues; d marks the D form. Peptide text beside a SMILES is read from it. * marks the point of attachment. X13 = O=C(O)CN1CCN(CC(=O)O)CCN(CC(=O)N2CCN(Cc3cc(C[*:1])cc(C[*:2])c3)CC2)CCN(CC(=O)O)CC1; Phe(2-Cl) = N[C@@H](Cc1ccccc1Cl)C(=O)O; 2Nal = N[C@@H](Cc1ccc2ccccc2c1)C(=O)O; mXylylene = c1cc(C[*:1])cc(C[*:2])c1; Hexanoyl = CCCCCC(=O)*; Nleu = CC(C)CNCC(=O)O
Listed here: items and their measured pIC50.

• CCCCCC(=O)N[C@H]1CSCc2cc(cc(CN3CCN(C(=O)CN4CCN(CC(=O)O)CCN(CC(=O)O)CCN(CC(=O)O)CC4)CC3)c2)CSC[C@@H](C(=O)N[C@@H](CC(=O)O)C(N)=O)NC(=O)[C@H](CCC(N)=O)NC(=O)[C@H](Cc2ccccc2)NC(=O)[C@@H]2CCCN2C(=O)[C@H]([C@@H](C)O)NC(=O)[C@@H]2CCCN2C1=O [3BP-3854] (Hexanoyl-CPTPFQCD-NH2; linker 1-7 via X13) = < 6.00
• CCCCCC(=O)N[C@H]1CSCc2cccc(c2)CSC[C@@H](C(N)=O)NC(=O)[C@H](Cc2ccc3ccccc3c2)NC(=O)[C@H](CCC(=O)O)NC(=O)[C@H]([C@@H](C)O)NC(=O)[C@@H]2CCCN2C(=O)[C@@H]2CCCN2C1=O [3BP-3362] (Hexanoyl-CPPTE[2Nal]C-NH2; linker 1-7 via mXylylene) = 6.10 to 7.00
• C[C@@H](O)[C@@H]1NC(=O)[C@@H]2CCCN2C(=O)[C@@H]2CCCN2C(=O)[C@@H](NC(=O)CCCCCN)CSCc2cccc(c2)CSC[C@@H](C(N)=O)NC(=O)[C@H](Cc2ccccc2)NC(=O)[C@H](CCC(N)=O)NC1=O = < 6.00
• CCCCCC(=O)N[C@H]1CSCc2cccc(c2)CSC[C@@H](C(N)=O)NC(=O)[C@H](Cc2ccccc2)NC(=O)[C@H](CCC(N)=O)NC(=O)[C@H]([C@@H](C)O)NC(=O)[C@@H]2CCCN2C(=O)CN(CC(C)C)C1=O [3BP-3749] (Hexanoyl-C[Nleu]PTQFC-NH2; linker 1-7 via mXylylene) = < 6.00
• CSCC[C@@H](NC(C)=O)C(=O)N[C@H]1CSCc2cc(CSCCNC(=O)CN3CCN(CC(=O)O)CCN(CC(=O)O)CCN(CC(=O)O)CC3)cc(c2)CSC[C@@H](C(=O)O)NC(=O)[C@H](Cc2ccccc2)NC(=O)[C@H](CCC(N)=O)NC(=O)[C@H]([C@@H](C)O)NC(=O)[C@@H]2CCCN2C(=O)[C@@H]2CCCN2C1=O = 7.10 to 8.00
• CCCCCC(=O)N[C@H]1CSCc2cc(CSCCNC(=O)CN3CCN(CC(=O)O)CCN(CC(=O)O)CCN(CC(=O)O)CC3)cc(c2)CSC[C@@H](C(=O)O)NC(=O)[C@H](Cc2ccccc2)NC(=O)[C@H](CCC(N)=O)NC(=O)[C@H]([C@@H](C)O)NC(=O)[C@@H]2C[C@@H](O)CN2C(=O)[C@@H]2CCCN2C1=O = > 8.00

[Q] Form field: reported pIC50 of CCCCCC(=O)N[C@H]1CSCc2cccc(c2)CSC[C@@H](C(N)=O)NC(=O)[C@H](Cc2ccccc2Cl)NC(=O)[C@H](CCC(=O)O)NC(=O)[C@H]([C@@H](C)O)NC(=O)[C@@H]2CCCN2C(=O)[C@@H]2CCCN2C1=O [3BP-3368] (Hexanoyl-CPPTE[Phe(2-Cl)]C-NH2; linker 1-7 via mXylylene)
[A] 7.10 to 8.00
